src = patent US6737383B1

# Velvetleaf plant response rating per entry
- System: velvetleaf
- testProtocol: Test B pre/postemergence velvetleaf
- Assay type: in vivo, Abutilon theophrasti
- experimentalConditions: Postemergence, Rate 125 g/ha; scale 0 to 10, 0 is no effect, 10 is complete control
The reply should be a number, written without any unit.

compound | recordedNumber
CC(C)N(C(=O)n1oc(=O)n(C(C)C(=O)N(C)C)c1=O)c1ccc(F)cc1F (stereo not shown) | 0
CC(C)N(C(=O)n1oc(=O)n(CC2OCCO2)c1=O)c1ccc(F)cc1F | 0
CC(C)N(C(=O)n1oc(=O)n(CCC(F)(F)F)c1=O)c1ccc(F)cc1F | 3

Moving on to the next compound.
Please look up its Velvetleaf plant response rating: CC(C)C(=O)Cn1c(=O)on(C(=O)N(c2ccccc2)C(C)C)c1=O
0

---

- Test system: wild oat
- testProtocol: Test B pre/postemergence wild oat
- Type: in vivo, Avena fatua
- experimentalConditions: Preemergence, Rate 125 g/ha; scale of 0 to 10 where 0 is no effect and 10 is complete control
Catalogue of Plant response rating, Wild oats readings, one per entry.

The cases that follow already have their Plant response rating, Wild oats on record.
compound | Plant response rating, Wild oats
C=CC(CC)n1c(=O)on(C(=O)N(c2ccccc2)C(C)C)c1=O (stereo not drawn) | 3
CC(C)N(C(=O)n1oc(=O)n(CCS(C)(=O)=O)c1=O)c1ccc(F)cc1 | 0

Here is the next item to consider.
Notebook entry, wild oat assay: Plant response rating, Wild oats of COC1CCC(Cn2c(=O)on(C(=O)N(c3ccc(Cl)cc3)C(C)C)c2=O)=NO1 (stereo not drawn) = ?
0

---

- System: giant foxtail
- testProtocol: Test B pre/postemergence giant foxtail
- Assay type: in vivo, Setaria faberii
- experimentalConditions: Preemergence, Rate 250 g/ha; scale 0 to 10, 0 is no effect, 10 is complete control
Listed next: entries and their corresponding Giant foxtail plant response rating.
Lab note: jot the number down without any unit.

// returns reported Giant foxtail plant response rating for input CC(C)N(C(=O)n1oc(=O)n([C@@H](C)c2ccccc2)c1=O)c1ccc(F)cc1 [Compound 167]
10

Recorded Giant foxtail plant response rating of Cc1nsc(C)c1-n1c(=O)on(C(=O)N(c2ccc(F)cc2)C(C)C)c1=O [Compound 157] , please.
8

Tell me the measured Giant foxtail plant response rating of CC(C)N(C(=O)n1oc(=O)n(C)c1=O)c1ccc(F)cc1 [Compound 138] , please.
10

What value of Giant foxtail plant response rating has been reported for the following compound? CCOC(=O)C=C(Cn1c(=O)on(C(=O)N(c2ccc(F)cc2)C(C)C)c1=O)OCC [Compound 396]
10

# lookup: Giant foxtail plant response rating of Cc1ccccc1-n1c(=O)on(C(=O)N(c2ccc(F)cc2)C2CCC2)c1=O [Compound 200]
6

Endpoint output: Giant foxtail plant response rating of CC(C)N(C(=O)n1oc(=O)n(C(C)C#N)c1=O)c1ccc(F)cc1F (centres unmarked) [Compound 432] . Value?
6

Sample CC(C)C(=O)Cn1c(=O)on(C(=O)N(c2ccccc2)C(C)C)c1=O [Compound 485] — what was its Giant foxtail plant response rating?
10

Query (compound): CC(C)N(C(=O)n1oc(=O)n(C(C)C(=O)N(C)C)c1=O)c1ccc(F)cc1 (centres unmarked) [Compound 478] ; field requested: Giant foxtail plant response rating
10

---

- System: blackgrass
- testProtocol: Test B pre/postemergence blackgrass
- Format: in vivo, Alopecurus myosuroides
- experimentalConditions: Rate 250 g/ha; Postemergence
Plant response rating (0 to 10; 0 is no effect, 10 is complete control), Blackgrass values, listed per item
Just the number, please, no unit attached.

Solved cases (5 shown):
smilesData | recordedNumber
CC(C)N(C(=O)n1oc(=O)n(-c2cccnc2)c1=O)c1ccc(F)cc1 | 0
CC(C)=CCCC(C)=CCn1c(=O)on(C(=O)N(c2ccc(F)cc2)C(C)C)c1=O | 0
CC(C)N(C(=O)n1oc(=O)n(Cc2ccco2)c1=O)c1ccc(Cl)cc1 | 0
C=CCn1c(=O)on(C(=O)N(c2ccc(F)cc2)C2CCCCCC2)c1=O | 0
CCOC(=O)C=CCn1c(=O)on(C(=O)N(c2ccc(F)cc2)C(C)C)c1=O | 4

Next up:
Given the compound COC(=O)CCCn1c(=O)on(C(=O)N(c2ccc(F)cc2)C(C)C)c1=O , what is its reported Plant response rating (0 to 10; 0 is no effect, 10 is complete control), Blackgrass?
6

---

- Tested on: pigweed
- testProtocol: Test B pre/postemergence pigweed
- Type: in vivo, Amaranthus retroflexus
- experimentalConditions: Preemergence, Rate 250 g/ha; scale 0 to 10, 0 is no effect, 10 is complete control
In this section, each of the compounds is paired with its reported Redroot pigweed plant response rating.
Please respond with just the number, no unit label.

Can you share its Redroot pigweed plant response rating? I mean this compound: CC(C)N(Cc1ccccc1)C(=O)n1oc(=O)n(C(C)C)c1=O
0

// Redroot pigweed plant response rating lookup, key: CC(C)N(C(=O)n1oc(=O)n(C)c1=O)c1ccc(F)cc1
10

Sample Cc1ccccc1-n1c(=O)on(C(=O)N(c2ccc(F)cc2)C2CCC2)c1=O — what was its Redroot pigweed plant response rating?
0

Fill in the blank: the reported Redroot pigweed plant response rating of CC(C)N(C(=O)n1oc(=O)n(C[Si](C)(C)c2ccccc2)c1=O)c1ccc(Cl)cc1 is ____.
0

---

- System: Italian ryegrass
- testProtocol: Test E Italian ryegrass
- Format: in vivo, Lolium multiflorum
- experimentalConditions: Preemergence; Rate 1000 g/ha; 0 to 100 scale where 0 is no effect and 100 is complete control
quantityName: Plant response rating, I. Ryegrass

# count of solved cases: 3
smilesData | subjectOfTest | quantityName | result
COc1ccccc1-n1c(=O)on(C(=O)N(c2ccc(F)cc2)C(C)C)c1=O | Italian ryegrass | Plant response rating, I. Ryegrass | 50
CC(C)N(C(=O)n1oc(=O)n(-c2cnn(C)c2)c1=O)c1ccccc1 | Italian ryegrass | Plant response rating, I. Ryegrass | 50
CC(C)N(C(=O)n1oc(=O)n([C@@H](C)c2ccccc2)c1=O)c1ccc(Cl)cc1 | Italian ryegrass | Plant response rating, I. Ryegrass | 40

Looking for the measured Plant response rating, I. Ryegrass of Cc1nsc(C)c1-n1c(=O)on(C(=O)N(c2ccc(F)cc2)C(C)C)c1=O , can you help?
50

---

- Test system: giant foxtail
- testProtocol: Test B pre/postemergence giant foxtail
- Format: in vivo, Setaria faberii
- experimentalConditions: Preemergence, Rate 62 g/ha; scale 0 to 10 (0 no effect, 10 complete control)
Giant foxtail plant response rating listing for selected molecules.

Previously resolved entries follow.
molecule | Giant foxtail plant response rating
CC(C)N(C(=O)n1oc(=O)n(CC(=O)N(C)C)c1=O)c1ccc(F)cc1 [Compound 586] | 9
CC(C)N(C(=O)n1oc(=O)n(-c2cccc3c2CCCC3)c1=O)c1ccc(F)cc1 [Compound 90] | 4
CC(C)N(C(=O)n1oc(=O)n(CC(=O)C(F)(F)F)c1=O)c1ccc(F)cc1F [Compound 598] | 0

Entry CC(C)N(C(=O)n1oc(=O)n(Cc2cccs2)c1=O)c1ccc(F)cc1F [Compound 86] : reported Giant foxtail plant response rating = ?
8

---

Listed here are molecules together with their documented Nutsedge plant response rating.
- Tested on: purple nutsedge
- testProtocol: Test B pre/postemergence purple nutsedge
- Type: in vivo, Cyperus rotundus
- experimentalConditions: Rate 62 g/ha, Postemergence; scale of 0 to 10 where 0 is no effect and 10 is complete control
Lab note: record the figure alone, no unit after it.

Using the record for CCN(CC)C(=O)n1oc(=O)n(-c2ccccc2C)c1=O , report its Nutsedge plant response rating.
0

Which Nutsedge plant response rating value belongs to CC(C)N(C(=O)n1oc(=O)n(Cc2ccco2)c1=O)c1ccc(Cl)cc1 ?
0

Need Nutsedge plant response rating of CC(C)N(C(=O)n1oc(=O)n([C@@H](C)c2ccccc2)c1=O)c1ccccc1 , thanks.
0

---

- System: blackgrass
- testProtocol: Test B pre/postemergence blackgrass
- Format: in vivo, Alopecurus myosuroides
- experimentalConditions: Rate 125 g/ha; Postemergence; scale 0 to 10, 0 no effect, 10 complete control
quantityName: Blackgrass plant response rating
Could you keep your reply to the number by itself?

Use these answered entries as a reference point.
molecule | recordedNumber
Cc1ccc(N(C(=O)n2oc(=O)n(-c3ccccc3C)c2=O)C(C)C)cc1 [Compound 40] | 0
Cc1ccccc1-n1c(=O)on(C(=O)N(c2ccc(F)c(F)c2)C(C)C)c1=O [Compound 48] | 0
Cc1cc(C)c(-n2c(=O)on(C(=O)N(c3ccc(Cl)cc3)C(C)C)c2=O)c(C)c1 [Compound 61] | 3

Under blackgrass: Blackgrass plant response rating value of Cc1cccc(C(C)C)c1-n1c(=O)on(C(=O)N(c2ccc(Cl)cc2)C(C)C)c1=O [Compound 64] ?
0

Query the reported Blackgrass plant response rating for blackgrass; item: CC(C)N(C(=O)n1oc(=O)n(-c2ccccc2)c1=O)c1ccc(F)cc1 [Compound 38]
3
